measured.attribute: IC50
In your response, the unit should come after the numeric value.

**Q:** Can you look up IC50 on CYP2D6 (Homo sapiens (Human), UniProt P10635) for FC(F)(F)c1ccc(CCN2CCC(Nc3ncnc4[nH]ncc34)C(F)(F)C2)cc1 (single isomer, unassigned; (-)) [E2-1.5] ?
**A:** 15.2 µM

**Q:** Form field: IC50 recorded for FC(F)(F)c1ccc(CCN2CCC(Nc3ncnc4[nH]ncc34)C(F)(F)C2)cc1 (single isomer, unassigned; (+)) [E1-1.5] with CYP2D6 (Homo sapiens (Human), UniProt P10635) (enter value)
**A:** 34.1 µM

###

- study.system: CYP2D6 (Homo sapiens (Human), UniProt P10635)
- Sequence (P10635 whole entry): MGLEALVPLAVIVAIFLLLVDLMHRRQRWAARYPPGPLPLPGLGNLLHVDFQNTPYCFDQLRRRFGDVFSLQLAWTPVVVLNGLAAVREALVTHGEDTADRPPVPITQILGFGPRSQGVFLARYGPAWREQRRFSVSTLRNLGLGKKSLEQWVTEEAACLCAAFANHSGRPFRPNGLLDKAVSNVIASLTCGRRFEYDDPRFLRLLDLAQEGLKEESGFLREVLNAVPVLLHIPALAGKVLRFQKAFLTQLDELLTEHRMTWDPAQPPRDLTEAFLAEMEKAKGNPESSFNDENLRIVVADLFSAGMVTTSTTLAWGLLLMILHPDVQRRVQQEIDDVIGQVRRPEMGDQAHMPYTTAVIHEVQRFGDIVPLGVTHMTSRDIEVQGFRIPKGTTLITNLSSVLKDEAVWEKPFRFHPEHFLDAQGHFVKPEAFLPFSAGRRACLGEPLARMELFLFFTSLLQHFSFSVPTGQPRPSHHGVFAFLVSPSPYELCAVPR
- measurement.description: CYP P450 enzyme inhibition in pooled human liver microsome
- condition.set: inhibition at 10 μM, pooled HLM, dextromethorphan 5 μM
Record form. Attribute: CYP2D6 @ 10 μM. Fill in for each entry.
Express your answer in %, writing the number without its unit.

**Q:** Quick one: CYP2D6 @ 10 μM for FC(F)(F)c1ccc(CCN2CCC(Nc3ncnc4[nH]ncc34)C(F)(F)C2)cc1 (single isomer, unassigned; (-)) [E2-1.5] ?
**A:** 37.9

**Q:** Entry under review: Fc1ccc(CCN2CCC(Nc3ncnc4[nH]ncc34)C(F)(F)C2)cc1 (racemic) [C-1.2] . Reported CYP2D6 @ 10 μM?
**A:** 45.1

**Q:** Form field: reported CYP2D6 @ 10 μM of FC(F)(F)c1ccc(CCN2CCC(Nc3ncnc4[nH]ncc34)C(F)(F)C2)cc1 (single isomer, unassigned; (+)) [E1-1.5]
**A:** 27.6

**Q:** Name the reported CYP2D6 @ 10 μM value associated with the compound FC(F)(F)c1cccc(CCN2CCC(Nc3ncnc4[nH]ncc34)C(F)(F)C2)c1 (racemic) [C-1.36]
**A:** 27.9
